# Test system: rodent lifetime carcinogenesis bioassay, tumor incidence TD50
# protocolSummary: carcinogenic potency in animals, long-term in vivo studies, CPDB compilation (AID 1745844)
# setupConditions: mouse; strain B6C3F1; males; inhaled; site: preputial gland; lesion: carcinoma + carcinoma, bilateral; dosed 40 weeks; study length 104 weeks
measuredProperty: TD50

Challenge: API: value(readout=TD50, system=rodent lifetime carcinogenesis bioassay, tumor incidence TD50) for record C=CC=C
Response given: 351 mg/kg/day

###

# Tested on: rodent lifetime carcinogenesis bioassay, tumor incidence TD50
# protocolSummary: carcinogenic potency in animals, long-term in vivo studies, CPDB compilation (AID 1745844)
# setupConditions: rat; strain F344/DuCrj; females; in drinking water; site: all sites; lesion: mononuclear-cell leukemia; dosed 103 weeks; study length 111 weeks
measuredProperty: TD50 (mg/kg/day)
One number for each entry, in mg/kg/day.

Challenge: State the recorded TD50 for this entry: CCN(N=O)C(N)=O
Response given: 0.151
